Cited source: ChEMBL document CHEMBL4385622

- procedure-details: Selectivity index, ratio of CC50 for human HepG2 cells infected with HCV genotype 1a H77 to EC50 for NS5A in HCV genotype 1a H77 infected in human HepG2 replicon cells
- Assay type: toxicity, cell-based
- protocol-conditions: read-out: Ratio CC50/EC50
measurement-name: selectivity ratio

Endpoint output: selectivity ratio of COC[C@H]1C[C@@H](c2ncc(-c3ccc4c(c3)COc3cc5c(ccc6nc([C@@H]7CC[C@H](C)N7C(=O)[C@@H](NC(=O)OC)C(C)C)[nH]c65)cc3-4)[nH]2)N(C(=O)[C@H](NC(=O)OC)c2ccccc2)C1 [VELPATASVIR] . Value? > 4.9e+06

###

- procedure-details: Cytotoxicity against human HepG2 cells infected with HCV genotype 1a H77 assessed as reduction in cell viability incubated for 5 days by CellTiter-Glo luminescent assay
- Assay type: cell-based
measurement-name: CC50 at 120 h

Endpoint output: CC50 at 120 h of COC[C@H]1C[C@@H](c2ncc(-c3ccc4c(c3)COc3cc5c(ccc6nc([C@@H]7CC[C@H](C)N7C(=O)[C@@H](NC(=O)OC)C(C)C)[nH]c65)cc3-4)[nH]2)N(C(=O)[C@H](NC(=O)OC)c2ccccc2)C1 . Value? > 44.4 µM

###

- procedure-details: Oral bioavailability in rat at 2 mg/kg
- Format: ADME, organism-based
- protocol-conditions: in vivo
measurement-name: bioavailability (%)
Numbers only, in %.

Endpoint output: bioavailability of COC[C@H]1C[C@@H](c2ncc(-c3ccc4c(c3)COc3cc5c(ccc6nc([C@@H]7CC[C@H](C)N7C(=O)[C@@H](NC(=O)OC)C(C)C)[nH]c65)cc3-4)[nH]2)N(C(=O)[C@H](NC(=O)OC)c2ccccc2)C1 [VELPATASVIR] . Value? 28

###

- procedure-details: Cytotoxicity against human HuH7 cells infected with HCV genotype 1a H77 assessed as reduction in cell viability incubated for 5 days by CellTiter-Glo luminescent assay
- Type: cell-based, Huh-7
measurement-name: CC50 at 120 h

Endpoint output: CC50 at 120 h of COC[C@H]1C[C@@H](c2ncc(-c3ccc4c(c3)COc3cc5c(ccc6nc([C@@H]7CC[C@H](C)N7C(=O)[C@@H](NC(=O)OC)C(C)C)[nH]c65)cc3-4)[nH]2)N(C(=O)[C@H](NC(=O)OC)c2ccccc2)C1 . Value? > 44.4 µM

###

- procedure-details: Cytotoxicity against human PC3 cells infected with HCV genotype 1b Con-1 assessed as reduction in cell viability incubated for 5 days by CellTiter-Glo luminescent assay
- Format: cell-based, PC-3
measurement-name: CC50 at 120 h

Endpoint output: CC50 at 120 h of COC[C@H]1C[C@@H](c2ncc(-c3ccc4c(c3)COc3cc5c(ccc6nc([C@@H]7CC[C@H](C)N7C(=O)[C@@H](NC(=O)OC)C(C)C)[nH]c65)cc3-4)[nH]2)N(C(=O)[C@H](NC(=O)OC)c2ccccc2)C1 . Value? > 44.4 µM

###

- procedure-details: Cytotoxicity against human MT4 cells infected with HCV genotype 1a H77 assessed as reduction in cell viability incubated for 5 days by CellTiter-Glo luminescent assay
- Format: cell-based
measurement-name: CC50 at 120 h

Endpoint output: CC50 at 120 h of COC[C@H]1C[C@@H](c2ncc(-c3ccc4c(c3)COc3cc5c(ccc6nc([C@@H]7CC[C@H](C)N7C(=O)[C@@H](NC(=O)OC)C(C)C)[nH]c65)cc3-4)[nH]2)N(C(=O)[C@H](NC(=O)OC)c2ccccc2)C1 . Value? > 44.4 µM

###

Would you mind telling me the reported Fa of each entry?
- procedure-details: Fraction absorbed in rat
- Assay type: ADME
- protocol-conditions: in vivo, read-out: Fabs
One number for each entry, in %.

Recorded Fa, per entry:
- smiles-structure: "COC(=O)N[C@H](C(=O)N1CCC[C@H]1c1ncc(-c2ccc3c(c2)COc2c-3ccc3c2ccc2nc([C@@H]4CCCN4C(=O)[C@@H](NC(=O)OC)C(C)C)[nH]c23)[nH]1)C(C)C"
  measurement-name: "Fa"
  recorded-measurement: 31
- smiles-structure: "COC(=O)N[C@H](C(=O)N1[C@@H](C)CC[C@H]1c1ncc(-c2ccc3c(c2)COc2cc4c(ccc5nc([C@@H]6CC[C@H](C)N6C(=O)[C@@H](NC(=O)OC)C(C)C)[nH]c54)cc2-3)[nH]1)C(C)C"
  measurement-name: "Fa"
  recorded-measurement: 27
- smiles-structure: "COC(=O)N[C@H](C(=O)N1C[C@@H](C)C[C@H]1c1nc2ccc3cc4c(cc3c2[nH]1)OCc1cc(-c2cnc([C@@H]3C[C@H](C)CN3C(=O)[C@H](NC(=O)OC)c3ccccc3)[nH]2)ccc1-4)C(C)C"
  measurement-name: "Fa"
  recorded-measurement: 4

Please give Fa for each item listed below.
1. COC[C@H]1C[C@@H](c2ncc(-c3cc4c5c(c3)OCc3cc(-c6cnc([C@@H]7CC[C@H](C)N7C(=O)[C@@H](NC(=O)OC)C(C)C)[nH]6)cc(c3-5)OC4)[nH]2)N(C(=O)[C@H](NC(=O)OC)c2ccccc2)C1
2. COC[C@H]1C[C@@H](c2ncc(-c3ccc4c(c3)COc3cc5c(ccc6nc([C@@H]7CCCN7C(=O)[C@@H](NC(=O)OC)C(C)C)[nH]c65)cc3-4)[nH]2)N(C(=O)[C@H](NC(=O)OC)c2ccccc2)C1
3. COC[C@H]1C[C@@H](c2nc3ccc4cc5c(cc4c3[nH]2)OCc2cc(-c3cnc([C@@H]4C[C@H](C)CN4C(=O)[C@@H](NC(=O)OC)C(C)C)[nH]3)ccc2-5)N(C(=O)[C@@H](NC(=O)OC)C(C)C)C1
4. COC(=O)N[C@H](C(=O)N1CCC[C@H]1c1ncc(-c2cc3c4c(c2)OCc2cc(-c5cnc([C@@H]6CCCN6C(=O)[C@@H](NC(=O)OC)C(C)C)[nH]5)cc(c2-4)OC3)[nH]1)C(C)C
5. COC[C@H]1C[C@@H](c2ncc(-c3ccc4c(c3)COc3cc5c(ccc6nc([C@@H]7C[C@H](COC)CN7C(=O)[C@@H](NC(=O)OC)C(C)C)[nH]c65)cc3-4)[nH]2)N(C(=O)[C@@H](NC(=O)OC)C(C)C)C1
6. COC[C@H]1C[C@@H](c2nc3ccc4cc5c(cc4c3[nH]2)OCc2cc(-c3cnc([C@@H]4CC[C@H](C)N4C(=O)[C@@H](NC(=O)OC)C(C)C)[nH]3)ccc2-5)N(C(=O)[C@@H](NC(=O)OC)C(C)C)C1

[29, 12, 11, 23, 10, 13]

###

- procedure-details: Volume of distribution at steady state in rat at 2 mg/kg, iv
- Assay type: ADME, organism-based
- protocol-conditions: in vivo, read-out: Vdss
measurement-name: Vd

Endpoint output: Vd of COC[C@H]1C[C@@H](c2ncc(-c3ccc4c(c3)COc3cc5c(ccc6nc([C@@H]7CC[C@H](C)N7C(=O)[C@@H](NC(=O)OC)C(C)C)[nH]c65)cc3-4)[nH]2)N(C(=O)[C@H](NC(=O)OC)c2ccccc2)C1 [VELPATASVIR] . Value? 1.61 L/kg

###

- procedure-details: Fraction absorbed in rat
- Type: ADME
- protocol-conditions: in vivo, read-out: Fabs
measurement-name: Fa (%)
Answers are plain numbers, in %.

Recorded Fa, per entry:
- smiles-structure: "COC(=O)N[C@H](C(=O)N1[C@@H](C)CC[C@H]1c1nc2ccc3cc4c(cc3c2[nH]1)OCc1cc(-c2cnc([C@@H]3C[C@H](C)CN3C(=O)[C@H](NC(=O)OC)c3ccccc3)[nH]2)ccc1-4)C(C)C"
  Fa [%]: 4
- smiles-structure: "COC(=O)N[C@H](C(=O)N1CCC[C@H]1c1ncc(-c2ccc3c(c2)COc2cc4c(ccc5nc([C@@H]6C[C@H](C)CN6C(=O)[C@@H](NC(=O)OC)C(C)C)[nH]c54)cc2-3)[nH]1)C(C)C"
  Fa [%]: 10

Endpoint output: Fa of COC(=O)N[C@@H](C(=O)N1[C@@H](C)CC[C@H]1c1ncc(-c2cc3c4c(c2)OCc2cc(-c5cnc([C@@H]6CC[C@H](C)N6C(=O)[C@H](NC(=O)OC)c6ccccc6)[nH]5)cc(c2-4)OC3)[nH]1)c1ccccc1 . Value? 3

###

- procedure-details: Clearance in monkey at 0.5 mg/kg, iv
- Type: ADME, organism-based, Macaca mulatta
- protocol-conditions: rhesus monkey, in vivo
measurement-name: clearance (mL/min/kg)
Numbers only, in mL/min/kg.

Endpoint output: clearance of COC[C@H]1C[C@@H](c2ncc(-c3ccc4c(c3)COc3cc5c(ccc6nc([C@@H]7CC[C@H](C)N7C(=O)[C@@H](NC(=O)OC)C(C)C)[nH]c65)cc3-4)[nH]2)N(C(=O)[C@H](NC(=O)OC)c2ccccc2)C1 . Value? 5
